system: S. pneumoniae 700906; test: MIC by micro-dilution method; type: cell-based; settings: Streptococcus pneumoniae, Table IV, species from U.S. Pat. No. 6,878,691 and US 2004/0053861, read-out: minimum inhibition concentration (MIC) S. pneumoniae 700906
Each entry below lists one item and its recorded MIC value.
measurement kind: MIC (µg/mL)

INSERT INTO results (compound_structure_string, reading) VALUES
  ('CC[C@H]1OC(=O)[C@H](C)C(=O)[C@H](C)[C@@H](O[C@@H]2O[C@H](C)C[C@H](N(C)C)[C@H]2O)[C@@]2(C)C[C@@H](C)/C(=N\C(C)=O)[C@H](C)[C@@H](OC/C(=N\OCc3nccc4ccccc34)CO2)[C@]1(C)O', 0.25),
  ('CC[C@H]1OC(=O)[C@H](C)C(=O)[C@H](C)[C@@H](O[C@@H]2O[C@H](C)C[C@H](N(C)C)[C@H]2O)[C@@]2(C)C[C@@H](C)/C(=N\C(C)=O)[C@H](C)[C@@H](OC/C(=N\OCc3ccc4nccnc4c3)CO2)[C@]1(C)O', 0.25),
  ('CC[C@H]1OC(=O)[C@H](C)[C@@H](OC(=O)Cc2cccnc2)[C@H](C)[C@@H](O[C@@H]2O[C@H](C)C[C@H](N(C)C)[C@H]2O)[C@@]2(C)C[C@@H](C)/C(=N\C(C)=O)[C@H](C)[C@@H](OC/C(=C\C=C\c3ccccc3)CO2)[C@]1(C)O', 8),
  ('CC[C@H]1OC(=O)[C@H](C)C(=O)[C@H](C)[C@@H](O[C@@H]2O[C@H](C)C[C@H](N(C)C)[C@H]2O)[C@@]2(C)C[C@@H](C)/C(=N\C(C)=O)[C@H](C)[C@@H](OC/C(=N\OCc3cn4ccncc4n3)CO2)[C@]1(C)O', 0.13);

###

system: S. pneumoniae 700906; assay: MIC by micro-dilution method; type: cell-based; conditions: Streptococcus pneumoniae, Table V, compounds of this invention, read-out: minimum inhibition concentration S. pneumoniae 700906
measurement kind: MIC (µg/mL)

INSERT INTO measurements (compound_structure_string, measurement_kind, value_units, reading) VALUES
  ('CC[C@H]1OC(=O)[C@H](C)C(=O)[C@H](C)[C@@H](O[C@@H]2O[C@H](C)C[C@H](N(C)C)[C@H]2O)[C@@]2(C)C[C@@H](C)/C(=N\C(C)=O)[C@H](C)[C@@H](OC/C(=N\OCc3ccc4oc(N)nc4c3)CO2)[C@]1(C)O', 'MIC', 'µg/mL', 0.125),
  ('CC[C@H]1OC(=O)[C@H](C)C(=O)[C@H](C)[C@@H](O[C@@H]2O[C@H](C)C[C@H](N(C)C)[C@H]2O)[C@@]2(C)C[C@@H](C)C(=O)[C@H](C)[C@@H](OC/C(=N\OCc3ccc4oc(N)nc4c3)CO2)[C@]1(C)O', 'MIC', 'µg/mL', 0.25),
  ('CC[C@H]1OC(=O)[C@H](C)C(=O)[C@H](C)[C@@H](O[C@@H]2O[C@H](C)C[C@H](N(C)C)[C@H]2O)[C@@]2(C)C[C@@H](C)C(=O)[C@H](C)[C@@H](OC/C(=N\OCc3ccc4nc(N)sc4c3)CO2)[C@]1(C)O', 'MIC', 'µg/mL', 1),
  ('CC[C@H]1OC(=O)[C@@](C)(F)C(=O)[C@H](C)[C@@H](O[C@@H]2O[C@H](C)C[C@H](N(C)C)[C@H]2O)[C@@]2(C)C[C@@H](C)/C(=N\C(C)=O)[C@H](C)[C@@H](OC/C(=N\OCc3ccc4onc(N)c4c3)CO2)[C@]1(C)O', 'MIC', 'µg/mL', 0.5);

###

The compounds listed here are annotated with their MIC.
tested on: H. influenzae 33929; experiment: MIC by micro-dilution method; assay type: cell-based; conditions: Haemophilus influenzae, Table IV, species from U.S. Pat. No. 6,878,691 and US 2004/0053861, read-out: minimum inhibition concentration (MIC) H. influenzae 33929
measurement kind: MIC (µg/mL)

INSERT INTO assay_data (compound, measurement_kind, value_units, rel, reading) VALUES
  ('CC[C@H]1OC(=O)[C@H](C)[C@@H](OC2C[C@@](C)(OC)[C@@H](OC(C)=O)[C@H](C)O2)[C@H](C)[C@@H](O[C@@H]2O[C@H](C)C[C@H](N(C)C)[C@H]2O)[C@@]2(C)C[C@@H](C)C(=O)[C@H](C)[C@@H](OCC(=Cc3cnc4ccccc4c3)CO2)[C@]1(C)O (stereo partly drawn) [Compound A4]', 'MIC', 'µg/mL', '>', 64),
  ('CC[C@H]1OC(=O)[C@H](C)C(=O)[C@H](C)[C@@H](O[C@@H]2O[C@H](C)C[C@H](N(C)C)[C@H]2O)[C@@]2(C)C[C@@H](C)/C(=N\C(C)=O)[C@H](C)[C@@H](OC/C(=N\OCc3ccc4nccnc4c3)CO2)[C@]1(C)O [Compound A2]', 'MIC', 'µg/mL', '=', 16),
  ('CC[C@H]1OC(=O)[C@H](C)C(=O)[C@H](C)[C@@H](O[C@@H]2O[C@H](C)C[C@H](N(C)C)[C@H]2O)[C@@]2(C)C[C@@H](C)/C(=N\C(C)=O)[C@H](C)[C@@H](OC/C(=N\OCc3cn4ccncc4n3)CO2)[C@]1(C)O [Compound A3]', 'MIC', 'µg/mL', '=', 8),
  ('CC[C@H]1OC(=O)[C@H](C)C(=O)[C@H](C)[C@@H](O[C@@H]2O[C@H](C)C[C@H](N(C)C)[C@H]2O)[C@@]2(C)C[C@@H](C)/C(=N\C(C)=O)[C@H](C)[C@@H](OC/C(=N\OCc3nccc4ccccc34)CO2)[C@]1(C)O [Compound A1]', 'MIC', 'µg/mL', '=', 8),
  ('CC[C@H]1OC(=O)[C@H](C)[C@@H](OC(=O)Cc2cccnc2)[C@H](C)[C@@H](O[C@@H]2O[C@H](C)C[C@H](N(C)C)[C@H]2O)[C@@]2(C)C[C@@H](C)/C(=N\C(C)=O)[C@H](C)[C@@H](OC/C(=C\C=C\c3ccccc3)CO2)[C@]1(C)O [Compound A6]', 'MIC', 'µg/mL', '>', 64),
  ('CC[C@H]1OC(=O)[C@H](C)[C@@H](O)[C@H](C)[C@@H](O[C@@H]2O[C@H](C)C[C@H](N(C)C)[C@H]2O)[C@@]2(C)C[C@@H](C)C(=N)[C@H](C)[C@@H](OC/C(=N\OCc3ccccc3)CO2)[C@]1(C)O [Compound A5]', 'MIC', 'µg/mL', '>', 64);
